Entries and their normalised response values follow.
Test system: HCC1599
Assay: normalised response (% of control), CellTiter-Glo; higher = more viable cells (100 = DMSO, 0 = benzethonium chloride kill control)
Details: incubation time: 72 h
Only the number, expressed in %, is required.

{"columns": ["molecule", "normalised response (%)"],
 "data": [
  ["Cn1nnc2c(C(N)=O)ncn2c1=O [Temozolomide] (100 nM)", 90.9]
]}

Let me know recorded normalised response for COc1cc2c(cc1-c1c(C)noc1C)ncc1[nH]c(=O)n([C@H](C)c3ccccn3)c12 [I-BET151] (100 nM) , thanks.
100

Let me know recorded normalised response for Cc1cc2c(F)c(Oc3ncnn4cc(OC[C@@H](C)O)c(C)c34)ccc2[nH]1 [Brivanib] (10 nM) , thanks.
104

Let me know recorded normalised response for O=NN(CCCl)C(=O)NC1CCCCC1 [Lomustine] (100 nM) , thanks.
90.1
